# Read-out: Vascular cell adhesion molecule 1 (VCAM1), VCAM1 (gene 7412)
# Protocol details: BSK_4H_VCAM1: BioMAP Diversity Plus: 4H Assay for Vascular cell adhesion molecule 1 (VCAM1) Biomarker Activity (AID 2283033);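 on outcome: cell-surface VCAM-1 protein measured by ELISA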
# Condition summary: primary human endothelial cells (HUVEC); actives raise or lower the signal
Calls of active or inactive are those of the source. How the source made its calls: active means hit-call score of the fitted dose curve at least 0.9, where 1 is the maximum; inactive means score below 0.9.
Give one outcome, nothing more. List: 1 (yes) = active, 0 (no) = inactive

# example entries with known answers
Compound: CCCN(CCC)c1c([N+](=O)[O-])cc(C(F)(F)F)cc1[N+](=O)[O-]
Class: 1 (yes)
--
Compound: O=C(O)CCCOc1ccc(Cl)cc1Cl
Class: 0 (no)
--
Compound: O=[N+]([O-])/N=C1\NCCN1Cc1ccc(Cl)nc1
Class: 0 (no)
--
Compound: CNC(=O)Oc1cccc(N=CN(C)C)c1
Class: 0 (no)
--
Compound: CCC(C)(C)C(=O)OC1=C(c2ccc(Cl)cc2Cl)C(=O)OC12CCCCC2
Class: 1 (yes)

In the following, a different compound is considered.
Test call, this compound: CC(C)(C)C(O)/C(=C\c1ccc(Cl)cc1Cl)n1cncn1 (stereo unspecified)
1 (yes)

* * *

# Read-out: sulfotransferase (SULT2A), SULT2A1 (gene 6822)
# Protocol details: CLD_SULT2A_24hr: CellzDirect (CLD) Gene Expression Assay for sulfotransferase (SULT2A) at 24 hours (AID 2283694)
# Method: CLD_24hr is a cell-based, multiplexed-readout assay that uses hepatocyte, a human liver primary cell, with measurements taken at 24 hours after chemical dosing in a 96-well plate.CLD_SULT2A_24hr is one of 16 assay component(s) measured or calculated from the CLD_24hr assay. […] Furthermore, this assay endpoint can be referred to as a primary readout. […]
Records with an inconclusive call do not appear. Activity calls are given as the source filed them. How the source made its calls: active means hit-call score of the fitted dose curve at least 0.9, where 1 is the maximum; inconclusive means response in the unintended direction; inactive means score below 0.9.
Outcome measure: outcome

Example results:
Molecule: CCC(C)Nc1c([N+](=O)[O-])cc(C(C)(C)C)cc1[N+](=O)[O-] (configuration not stated)
Outcome measure: outcome
Observed: inactive
//
Molecule: O=S(=O)(O)C(F)(F)C(F)(F)C(F)(F)C(F)(F)C(F)(F)C(F)(F)C(F)(F)C(F)(F)F
Outcome measure: outcome
Observed: inactive
//
Molecule: CC(C)OC(=O)Nc1cccc(Cl)c1
Outcome measure: outcome
Observed: inactive
//
Molecule: COC(=O)c1ccccc1S(=O)(=O)NC(=O)Nc1nc(C)nc(OC)n1
Outcome measure: outcome
Observed: inactive
//
Molecule: CCOCN(C(=O)CCl)c1c(C)cccc1CC
Outcome measure: outcome
Observed: inactive
//
Molecule: CCc1ccc(C(=O)NN(C(=O)c2cc(C)cc(C)c2)C(C)(C)C)cc1
Outcome measure: outcome
Observed: inactive
//
Molecule: N#CN
Outcome measure: outcome
Observed: inactive
//
Molecule: O=C(O)C(F)(F)C(F)(F)C(F)(F)C(F)(F)C(F)(F)C(F)(F)C(F)(F)F
Outcome measure: outcome
Observed: inactive
//
Molecule: CNC(=O)/C=C(\C)OP(=O)(OC)OC
Outcome measure: outcome
Observed: inactive
//
Molecule: CC(C)(C)C(O)/C(=C\c1ccc(Cl)cc1Cl)n1cncn1 (configuration not stated)
Outcome measure: outcome
Observed: inactive

Count: 2. Required value per item: outcome.
1. COc1cc(OC)nc(NC(=O)NS(=O)(=O)c2cc(NC=O)ccc2C(=O)N(C)C)n1
2. CC(C)N(C(=O)COc1nnc(C(F)(F)F)s1)c1ccc(F)cc1

inactive
inactive

* * *

# Read-out: Cyclin D2 (CCND2), CCND2 (gene 894)
# Protocol details: LTEA_HepaRG_CCND2: Life Technologies and Expression Analysis (LTEA) Assay for Cyclin D2 (CCND2) using HepaRG (AID 2283449);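 further: CCND2 transcript measured by TaqMan qRT-PCR and normalised to three housekeeping genes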
# Condition summary: mRNA level, 48 h; actives raise or lower the signal
# Procedure: LTEA_HepaRG is a cell based, multiplexed-readout assay that uses HepaRG, a human liver cell line, with measurements taken at 48 hours after chemical dosing on a 96-well plate.LTEA_HepaRG_CCND2 is one of 102 assay component(s) measured in the LTEA HepaRG cell culture assay. It is a marker of Cell proliferation, survival, death.Data from the assay component LTEA_HepaRG_CCND2 was analyzed into 1 endpoint. […]
Active and inactive are the calls of the source. How the source made its calls: active means hit-call score of the fitted dose curve at least 0.9, where 1 is the maximum; inactive means score below 0.9.
Outcome measure: outcome

Smiles notation: CNC(=O)Oc1ccccc1OC(C)C
Observed: inactive

Smiles notation: Oc1ccc(Cl)cc1Cc1ccccc1
Observed: inactive

Smiles notation: COc1nn(CSP(=S)(OC)OC)c(=O)s1
Observed: inactive

Smiles notation: O=C(O)COc1ccc(Cl)cc1Cl
Observed: inactive

I'm hoping you can list outcome for every molecule here, please.
1. CNC(=O)Oc1cccc(N=CN(C)C)c1
2. CCc1ccc(C(=O)NN(C(=O)c2cc(C)cc(C)c2)C(C)(C)C)cc1
3. CNC(=O)/C=C(\C)OP(=O)(OC)OC

["inactive", "inactive", "inactive"]

* * *

# Read-out: Matrix Metallopeptidase 1 (MMP1), MMP1 (gene 4312)
# Protocol details: BSK_BE3C_MMP1: BioMAP Diversity Plus: BE3C Assay for Matrix Metallopeptidase 1 (MMP1) Biomarker Activity (AID 2283024)
# Condition summary: primary human bronchial epithelial cells; actives raise or lower the signal
The source made the active and inactive calls. The calls were made as follows: active = hit-call score of the fitted dose curve at least 0.9, where 1 is the maximum; inactive = score below 0.9.
Select the matching outcome among active, inactive

Some solved cases for reference:
Molecule: N#Cc1c(Cl)c(Cl)c(Cl)c(C#N)c1Cl
Class: active
--
Molecule: C[C@H]1[C@H](c2ccc(Cl)cc2)SC(=O)N1C(=O)NC1CCCCC1
Class: active
--
Molecule: CCCN(CCOc1c(Cl)cc(Cl)cc1Cl)C(=O)n1ccnc1
Class: inactive
--
Molecule: COP(=S)(OC)Oc1ccc(SC)c(C)c1
Class: active
--
Molecule: Cc1cc(C)nc(NC(=O)NS(=O)(=O)c2ccccc2C(=O)OC2COC2)n1
Class: inactive
--
Molecule: CCOc1nc(NC)nc(NC(=O)NS(=O)(=O)c2ccccc2C(=O)OC)n1
Class: inactive

Check the results log: what was the call for `CCCN(CCC)c1c([N+](=O)[O-])cc(C(F)(F)F)cc1[N+](=O)[O-]` ?
inactive

How was `CCOCN(C(=O)CCl)c1c(C)cccc1CC` classified in this test?
inactive

Lab log entry: CC(C)(C)C(O)C(Oc1ccc(Cl)cc1)n1cncn1 (stereo unspecified) — outcome as called in the assay?
inactive

What call does the record list for ClC1C(Cl)C(Cl)C(Cl)C(Cl)C1Cl (stereo unspecified) ?
inactive

For this molecule, state the assay outcome: `C#CCN1C(=O)COc2cc(F)c(N3C(=O)C4=C(CCCC4)C3=O)cc21`
inactive

What classification did CC1(C)C(C=C(Cl)Cl)C1C(=O)OC(C#N)c1ccc(F)c(Oc2ccccc2)c1 (stereo unspecified) end up with in this test?
inactive

Per the assay record, what outcome was assigned to `Clc1ccccc1-c1nnc(-c2ccccc2Cl)nn1` ?
inactive

Look up the recorded call for `O=C(O)COc1ccc(Cl)cc1Cl` in this test.
inactive

Record request — test call for `CNC(=O)CSP(=S)(OC)OC`
inactive

// param item: O=S1OCC2C(CO1)C1(Cl)C(Cl)=C(Cl)C2(Cl)C1(Cl)Cl (stereo unspecified) ; yields the recorded call
active

Answer briefly: the call reported for `CNC(=O)Oc1ccccc1OC(C)C` in this assay.
inactive

Per the records of this test, what outcome belongs to `CC(C)N(C(=O)COc1nnc(C(F)(F)F)s1)c1ccc(F)cc1` ?
inactive

* * *

# Read-out: Interleukin-8 (IL8), CXCL8 (gene 3576)
# Protocol details: BSK_3C_IL8: BioMAP Diversity Plus: 3C Assay for Interleukin-8 (IL8) Biomarker Activity (AID 2283020)
# Condition summary: primary human endothelial cells (HUVEC); actives raise or lower the signal
Calls of active or inactive are those of the source. The calls were made as follows: active = hit-call score of the fitted dose curve at least 0.9, where 1 is the maximum; inactive = score below 0.9.
Returns: one label drawn from active, inactive

Take a look at these entries with their results.
Molecule: Oc1ccc(Cl)cc1Cc1ccccc1
Class: active

Molecule: Clc1ccccc1-c1nnc(-c2ccccc2Cl)nn1
Class: inactive

Dear all, I need the recorded test outcome for CC1(c2ccc(Oc3ccccc3)cc2)OC(=O)N(Nc2ccccc2)C1=O (stereo not given) , thank you.
active

Name the outcome recorded for `CNC(=O)Oc1cccc(N=CN(C)C)c1` in the assay.
inactive

Entry `COc1cc(OC)nc(NC(=O)NS(=O)(=O)c2cc(NC=O)ccc2C(=O)N(C)C)n1` : call = ?
inactive

* * *

# Protocol details: APR_HepG2_CellCycleArrest_72hr: Apredica 72-hour HepG2 Assay for Cell Cycle Arrest (AID 2282914)
# Condition summary: high-content imaging, actives raise or lower the signal
Active and inactive are the calls of the source. How the source made its calls: active means hit-call score of the fitted dose curve at least 0.9, where 1 is the maximum; inactive means score below 0.9.
Can you answer with just one of these options? T (active), F (inactive)

Previously resolved entries follow.
Compound: CNC(=O)Oc1ccccc1OC(C)C
Class: F

Compound: CNC(=O)/C=C(\C)OP(=O)(OC)OC
Class: F

Compound: N#CN
Class: F

Compound: CC(C)N(C(=O)COc1nnc(C(F)(F)F)s1)c1ccc(F)cc1
Class: F

Compound: C#CCN1C(=O)COc2cc(F)c(N3C(=O)C4=C(CCCC4)C3=O)cc21
Class: F

Compound: COc1cc(OC)nc(NC(=O)NS(=O)(=O)c2cc(NC=O)ccc2C(=O)N(C)C)n1
Class: F

So what was the verdict on `CCC(C)(C)C(=O)OC1=C(c2ccc(Cl)cc2Cl)C(=O)OC12CCCCC2` in this test?
F

Name the outcome recorded for `O=C(O)CCCOc1ccc(Cl)cc1Cl` in the assay.
F

Could you kindly confirm the outcome this assay logged for `COC(=O)c1ccccc1S(=O)(=O)NC(=O)Nc1nc(C)nc(OC)n1` ?
F

Source of measurements: PubChem BioAssay (EPA / NIEHS)
